Tested on: NCI-H460 lung
Test: NCI-60 one-dose screen, 48 h (100 = growth as untreated, 0 = no growth, -100 = all killed)
Conditions: 10 µM unless noted
Compounds without any hit were thinned out: in the full panel of roughly 83,000, 20% have a hit.
Values of growth strictly less than 30% map to t, and values of at least 30% map to f.

# example entries with known answers
- C=C1[C@@H](C)[C@H]2[C@H](Cc3ccccc3)NC(=O)[C@]23[C@@H](O)/C=C/[C@@](C)(O)C(=O)[C@@H](C)C/C=C/[C@H]3[C@@H]1O: f
- COc1ccc(/C=C\c2cc(OC)c(OC)c(OC)c2)cc1OCC(=O)Nc1nc2ccc(C(F)(F)F)cc2s1: t
- O=C(O)C1C(C(=O)O)C2(Cl)C(Cl)=C(Cl)C1(Cl)C2(Cl)Cl.[Hg] (centres undefined): f

*Q* Would you kindly verify if growth of O=C(O)c1ccc([S-])cc1.[Au+].c1ccc(CN2[CH-]N(Cc3ccccc3)C(c3ccccc3)=C2c2ccccc2)cc1 is strictly less than 30%?
*A* t

*Q* Would you kindly verify if growth of COC(=O)[C@@H](C)C[C@H](Cc1ccccc1)NC(=O)c1cccc([C@@H](C[C@H](C(C)C)N(C)C(=O)[C@@H](NC(=O)[C@H]2CCCCN2C)C(C)C)OC(C)=O)n1 is strictly less than 30%?
*A* t

*Q* Would you kindly verify if growth of CCCC(=O)O[C@@H]1C[C@H]2C[C@@H](O[C@@H]3O[C@@H](C)[C@@H](O)[C@@H](O)[C@H]3OC)C[C@@H](C[C@@H](C)/C=C/C=C\C[C@@H]3O[C@@H](C[C@@H]3C)[C@@H](O)C[C@H]3C[C@@]1(O)C(=O)O3)O2 is strictly less than 30%?
*A* f

*Q* Would you kindly verify if growth of CCC(CC)CC1(C)CC2(C)CCOC2OO1 (centres undefined) is strictly less than 30%?
*A* f

*Q* Would you kindly verify if growth of CC(=O)Nc1nc2c(s1)CC[C@@]1(C)C2=CC[C@H]2[C@@H]3CC[C@H](O)[C@@]3(C)CC[C@@H]21 is strictly less than 30%?
*A* t

----------
Tested on: MALME-3M melanoma
Assay: NCI-60 one-dose screen, 48 h (100 = growth as untreated, 0 = no growth, -100 = all killed)
Conditions: 10 µM unless noted
About 83,000 compounds went through this panel and 20% of them were active in at least one assay; those are over-represented in the sample as a whole.
Class key for growth values: low = under 50%, moderate = from 50% up to 90%, high = 90% and over

# example entries with known answers
• COc1cc(/C=N/C2=C(C#N)C(c3ccco3)c3c(c4cc(C)ccc4oc3=O)O2)cc(OC)c1OC (stereo not given) = high
• O=[N+]([O-])c1c(Br)sc(Br)c1[N+](=O)[O-] = low

*Q* Which bin should I file C=CCn1cc(C=C2C(=O)N(C)C(=O)N(C)C2=O)c2ccccc21 under?
*A* high

*Q* Which bin should I file C/C(CC(C)(C)N1CC1)=N\NC(=O)Nc1cccc2ccccc12 under?
*A* moderate

*Q* Which bin should I file Cc1c(NS(=O)(=O)c2ccccc2)ccc([N+](=O)[O-])c1Cl under?
*A* low

*Q* Which bin should I file CC[C@@H]1[C@@H](C)O[C@@](O)([C@@H](C)[C@H](O)[C@H](C)[C@H]2OC(=O)/C=C/C=C/[C@H](C)[C@@H]([C@@H](C)[C@@H](O)[C@H](C)[C@@]3(O)C[C@@H](O[C@H]4C[C@@H](O)[C@H](O)C(C)O4)[C@H](CC)[C@@H](C)O3)OC(=O)/C=C/C=C/[C@@H]2C)C[C@H]1O[C@@H]1C[C@@H](O)[C@H](O)C(C)O1 (stereo not given in full) under?
*A* low

// provenance: PubChem BioAssay (NCI)
